The reported measurements were obtained from PubChem BioAssay AID372.

biological target: Gag-Pol polyprotein (Human immunodeficiency virus type 1 group M subtype B (isolate HXB2)); assay: RNase H inhibition, HIV 1 Gag Pol polyprotein, FRET biochemical assay, screening (AID 372); settings: HIV-1 RT RNase H, FRET RNA/DNA substrate fluorescence; at 10 µM
Out of some 100,000 compounds screened, about 770 (0.77%) were called active. No stated cut-off is given here; in the data, active means inhibition above about 50%; inactive means the rest. Many of the other results were omitted from the sample, so actives are more common in it than they were.
Answer with one of the outcomes yes (1) = active, no (0) = inactive

q: For CC1=C(C(=O)OC2CCCCC2)C(c2ccccc2[N+](=O)[O-])C2=C(CCCC2=O)N1 (stereo not drawn) , which call appears in the assay record?
a: no (0)

q: Queued: O=C(c1cccc(Br)c1)N1N=C(c2ccc(F)cc2)CC1(O)C(F)(F)F (stereo not drawn)
a: no (0)

q: Queued: "CCC(=O)c1cc(Cl)ccc1NC(=O)c1ccc(Br)cc1"
a: no (0)

q: Queued: "CC(=O)/C(=C1\NC(C)(C)Cc2ccccc21)c1ccccc1"
a: no (0)

q: Queued: "C=CCn1c(CSc2nc3ccccc3s2)n[nH]c1=S"
a: no (0)

q: Queued: "C=CCn1c(CCCN2C(=O)c3cccc4cccc(c34)C2=O)nnc1SC/C=C/c1ccccc1"
a: no (0)

q: Queued: "CSc1nc(SC)c2c3c(sc2n1)CN(C)CC3"
a: no (0)

q: Queued: "Cc1cccc(OCC(=O)Nc2ccccc2C(C)C)c1C"
a: no (0)

q: Queued: "NN1CCN(Cc2cccc3ccccc23)CC1"
a: no (0)

q: Queued: "Clc1ccccc1-c1nc(-c2cccnc2)no1"
a: no (0)

q: Queued: CCC1CCCCN1S(=O)(=O)c1ccc(Cl)c([N+](=O)[O-])c1 (stereo not drawn)
a: no (0)

q: Queued: "O=C(Nc1ccc2oc(-c3ccc(F)cc3Cl)nc2c1)c1cc(Cl)ccc1Cl"
a: no (0)

q: Queued: "CCNC(=O)c1c(O)c2ccccc2n(C)c1=O"
a: no (0)

q: Queued: "Cc1ccc(NC(=O)CSc2nc3ccccc3s2)cc1C"
a: no (0)

q: Queued: "CCN1C(=O)/C(=C/c2cc(Cl)cc(Cl)c2OCCOc2ccccc2OC)SC1=S"
a: no (0)

q: Queued: "O=C(c1ccc(Cl)c(Cl)c1)c1ccc(N2CCCCC2)c([N+](=O)[O-])c1"
a: no (0)

q: Queued: "O=C(Nc1ccc(F)cc1)Nc1nnc(CSCc2ccc(Cl)cc2)s1"
a: no (0)

q: Queued: "COc1cc(CN2CCN(Cc3ccc(OC)c(OC)c3OC)CC2)cc(OC)c1OC"
a: no (0)

q: Queued: "Cc1c(NC(=S)NC(=O)/C=C/c2ccccc2)cccc1-c1nc2ccccc2o1"
a: no (0)

q: Queued: "COc1ccc(-c2cc(-c3ccccc3)nc(-c3ccc(C)o3)c2)cc1"
a: no (0)

q: Queued: "COc1ccc(Cl)cc1N(CC(=O)N1CCC(C)CC1)S(=O)(=O)c1ccc(C)c([N+](=O)[O-])c1"
a: no (0)

q: Queued: "Cc1ccc(NC(=O)c2c(NC(=O)C(F)(F)F)sc3c2CCC3)c(C)c1"
a: no (0)

q: Queued: "O=C(c1ccc(Cl)c(Cl)c1)c1ccc(N2CCOCC2)c([N+](=O)[O-])c1"
a: yes (1)
